Assay System: T1, human CDH6 (cadherin-6), full-length, on cells (human, UniProt P55285 54-790)
T1 construct: also called hCDH6; full-length hCDH6
T1 sequence: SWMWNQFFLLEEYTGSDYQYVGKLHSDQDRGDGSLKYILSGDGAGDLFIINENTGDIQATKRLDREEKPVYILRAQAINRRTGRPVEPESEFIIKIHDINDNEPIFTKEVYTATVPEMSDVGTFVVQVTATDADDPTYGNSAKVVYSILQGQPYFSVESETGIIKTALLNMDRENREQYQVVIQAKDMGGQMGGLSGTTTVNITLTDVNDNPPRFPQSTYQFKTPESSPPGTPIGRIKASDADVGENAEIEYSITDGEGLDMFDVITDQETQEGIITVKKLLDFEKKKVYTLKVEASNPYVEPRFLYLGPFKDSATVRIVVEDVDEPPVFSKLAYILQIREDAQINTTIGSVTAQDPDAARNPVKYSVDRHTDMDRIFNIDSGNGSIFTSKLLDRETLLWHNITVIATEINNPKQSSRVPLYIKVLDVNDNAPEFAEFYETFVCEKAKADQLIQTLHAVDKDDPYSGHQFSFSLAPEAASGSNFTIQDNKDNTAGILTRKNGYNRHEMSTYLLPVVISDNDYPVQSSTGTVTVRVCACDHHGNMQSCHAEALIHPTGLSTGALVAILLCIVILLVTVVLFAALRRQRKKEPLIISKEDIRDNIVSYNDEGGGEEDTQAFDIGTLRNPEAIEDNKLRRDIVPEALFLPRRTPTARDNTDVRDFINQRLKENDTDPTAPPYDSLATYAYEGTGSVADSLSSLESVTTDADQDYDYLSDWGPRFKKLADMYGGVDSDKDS
Assay Protocol: flow cytometry; hCDH6-transfected 293T cells (open line) against untransfected 293T cells (shaded); antibody 10 ng/mL; anti-rat IgG-FITC
Endpoint Name: binding result

rat anti-human CDH6 monoclonal antibody rG056 (antibody, rat IgG2b, V domains shown, Purified from hybridoma supernatant; also called rG056 antibody) VH: EVQLQESGPGLVKPSQSLSLTCSVTDYSITTYFWGWIRKFPGNKMEWMGYMSYRGGTSYNPSLKSRISITRDTSKNQFFLQLNSVTTEDTATYYCARCPNYGGHSLVFDYWGQGVMVTVSS VL: DVQMTQSPSSLAASPGESVSISCRATKSIGIYLAWYQQKPGKTFKLLIYSGSTLQSGTPSRFSGSGSGTDFTLTIRSLEPEDFGLYFCQQFYENPFTFGSGTKLEIRR	binds
rat anti-human CDH6 monoclonal antibody rG055 (antibody, rat IgG2b, V domains shown, Purified from hybridoma supernatant; also called rG055 antibody) VH: EVQLQESGPGLVRPSQSLSLSCSVTDYSITSNYWGWIRRFPGNKMEWMGYITYSGYTSYNPSLQSRISITRDTSKNQFFLQLNSVTAEDTATYYCARSINHGGYSYVVDAWGPGASVTVSS VL: DVQMTHSPSYLAASPGESVSISCKTSKNISNYLVWYQQKPGEAYKLLIYSGSTLQSGTPSRFSGSGSGTDFTLTIRSLEPEDFGLYFCQQYYEKPFTFGSGTKLEIKR	binds
rat anti-human CDH6 monoclonal antibody rG019 (antibody, rat IgG2b, V domains shown, Purified from hybridoma supernatant; also called rG019 antibody) VH: QVQLQQSGAELVKPGSSVKISCKASGYTFTRNFMHWIKQQPGNGLEWIGWIYCGDGETEYNQKFNGKATLTADRSSSTAYMELSRLTSEDSAVYFCARGVYGGFAGGYFDFWGQGVMVTVSS VL: DIQMTQSPSLLSASVGDRVTLNCKASQNIYKNLAWYQQKLGEGPKLLIYDANTLQTGIPSRFSGSGSGSDFTLTISSLQPEDVATYFCQQYYSGWAFGGVTNLELKRA	binds
rat anti-human CDH6 monoclonal antibody rG061 (antibody, rat IgG2b, V domains shown, Purified from hybridoma supernatant; also called rG061 antibody) VH: EVQLQESGPGLVKPSQSLSLTCSVTGYSITTYYWGWIRKFPGNKMEWMGYISYSGRTSYNPSLKSRMSITRDASKNQFFLQLNSVTTDDTATYYCARSPINHGGYWYFDFWGPGTMVTVSS VL: DVQMTQSPSYLAASPGESVSISCKATKSISNYLAWYQQKPGEAYKVLIYSGSTLQSGTPSRFSGSGSGTDFTLTIRSLEPEDFGLYSCQQYYEKPLTFGSGTKLEIKR	binds

The reported numbers originate from patent US20240390512A1.
